Data provenance: ChEMBL document CHEMBL1201862

Test system: SK-OV-3
assay remarks: NCI tumour cell line growth inhibition, 48 h
The source made the active and inactive calls. Rule as the data show it: active = GI50 up to about 1.1 µM and inactive = higher.
Classes used: active, inactive

- COC(=O)c1cc2c(cc1CC1Cc3cc4c(cc3C1=O)CCC4)CCC2 (stereo not given): inactive
- COC1(CCO)CC=CCC1(CCO)OC (stereo not given): inactive
- CN(C)c1ccc(C(=NN)c2ccc(N(C)C)cc2)cc1: inactive
- CC[C@@]1(O)C(=O)OCc2c1cc1n(c2=O)Cc2cc3c(NC(=O)CN)cccc3nc2-1: active
- COC1C(OC(=O)/C=C/C=C/C=C/C=C/C(=O)O)CCC2(CO2)C1C1(C)OC1CC=C(C)C (stereo not given): inactive
- CSc1c(C#N)c(N)nc2c(/N=N\c3ccc(Br)cc3)c(N)nn12: inactive
- CC[C@H](CCCC[C@H]1CC[C@@H]2CC(=O)C[C@H]12)OC: inactive
- CCN(CC)c1ccc(/N=N/c2ccc(-c3nc4cccn(C)c-4n3)cc2)cc1: inactive
- COC1=CC(=O)N(C)C(O)C1(C#N)OC1OC(CO)C(O)C(O)C1O (stereo not given): inactive
- CSc1ncc2c(n1)sc1c(=O)n(-c3ccccc3)cnc12: inactive

====

System: LOX IMVI
assay remarks: NCI tumour cell line growth inhibition, 48 h
Active and inactive are the calls of the source. Cut-off read from the data, not from the text of the source: active = GI50 up to about 1.1 µM and inactive = higher.
Known GI50 of a selection of molecules
parameter: GI50

* CC[C@H](CCCC[C@H]1CC[C@@H]2CC(=O)C[C@H]12)OC | > 100 µM (inactive)
* O=[N+]([O-])c1cc(/N=N/c2c(O)ccc3cc(S(=O)(=O)O)ccc23)c(O)c([N+](=O)[O-])c1 | 49 µM (inactive)
* COC1CC(C)(NC(C)=O)C2OC(c3ccccc3)OCC2O1 (stereo not given) | > 100 µM (inactive)
* CCOC(=O)CNC1=Nc2ccccc2C(=O)N2CSCC12 (stereo not given) | > 100 µM (inactive)
* CCOc1nc(N)nc(C)c1/N=N/c1ccc(Cl)cc1 | > 100 µM (inactive)

====

Tested on: SF-268
assay remarks: NCI tumour cell line growth inhibition, 48 h
Calls of active or inactive are those of the source. Rule as the data show it: active = GI50 up to about 1.1 µM and inactive = higher.
parameter: GI50

* Cc1cc(-c2nc3ccc(F)cc3s2)ccc1NC(=O)C(N)CCCCN (stereo unspecified) | 6.7 µM (inactive)
* COc1cc(O)cc(/C=C/c2ccc(O)cc2)c1 | 49.1 µM (inactive)
* C/C(=N\NS(=O)(=O)c1ccccc1)c1ccccc1 | > 100 µM (inactive)
* CCCCCCCCCCCCOP(N)(=O)OCCCCCCCCCCCC | > 100 µM (inactive)
* N#CC(NCCO)=C1C(=O)c2ccccc2C1=O | > 100 µM (inactive)
* COc1ccc(OC)c(NC(=O)CCC/C(CC(=O)c2ccc(O)c(OC)c2)=N\Nc2ccc([N+](=O)[O-])cc2)c1 | > 100 µM (inactive)

====

Test system: SR
assay remarks: NCI tumour cell line growth inhibition, 48 h
Activity calls are given as the source filed them. Rule as the data show it: active = GI50 up to about 1.1 µM and inactive = higher.
Classes used: TRUE = active, FALSE = inactive

- Brc1ccc(/N=N/N2CCCC2)cc1: FALSE
- Cc1c(/C=N\NC(=S)N2CCN(C(=S)N/N=C\c3c(C)n(C)n(-c4ccccc4)c3=O)CC2)c(=O)n(-c2ccccc2)n1C: FALSE
- CCN(CC)C(=S)N/N=C(/C)c1cccc(/C(C)=N\NC(=S)N(CC)CC)n1: TRUE
- COC1CC(C)(NC(C)=O)C2OC(c3ccccc3)OCC2O1 (stereo unspecified): FALSE
- CC1=C(N2CC2)C(=O)C(C)=C(N2CC2)C1=O: TRUE
- CC1=CC(C)C(C)N(CCNC(=O)Nc2ccccc2)c2ccccc21 (stereo unspecified): FALSE
- CCSc1nc(N/N=C/c2cccs2)c2cnn(CO)c2n1: FALSE
- CCCCCCCCCCCCOP(N)(=O)OCCCCCCCCCCCC: FALSE
- Cc1cc(CC(=O)NCCO)n(CCO)c(=O)c1: FALSE
- COC(=O)C(=O)C(C(C)=O)C(=O)NCc1ccc(OC)c(OC)c1 (stereo unspecified): FALSE
- CC[C@@]1(O)C(=O)OCc2c1cc1n(c2=O)Cc2cc3c(NC(=O)CN)cccc3nc2-1: TRUE
